experiment-summary: blocks a specific stage of Vaccinia orthopoxvirus infection, primary screen, cell-based, single point (AID 1053133)
condition-parameters: Vaccinia-infected cells, mCherry/Venus stage reporter fluorescence, stronger effect = lower value, concentration not given here; measured here: Venus reporter, other viral stage
The whole screen tested about 89,000 compounds, of which about 10 (0.01%) were called active. Roughly 10% stayed inconclusive and do not appear here. A selection follows.
endpoint-name: activity change (Venus) (%)
Field format: number, assumed %, no unit text.

// activity change (Venus) value for CN1c2ccc(C#Cc3cccnc3)cc2[C@H]2[C@H](CCN2S(=O)(=O)c2ccccc2)[C@@H]1CO : -9.21

For this molecule ( CCNC(=O)[C@H]1[C@H](CO)[C@H]2Cn3c(cccc3=O)[C@@H]1N2Cc1cc(F)ccc1F ), measured activity change (Venus) is 15.1

Form field activity change (Venus), entry O=C(C1CCCC1)N1[C@H](CO)[C@@H]2c3ccccc3N(S(=O)(=O)c3ccccc3)C[C@@H]21 : -0.835

Note to self: activity change (Venus) recorded for C[C@H](CO)N1C[C@H](C)[C@@H](CN(C)Cc2ccc(Oc3ccccc3)cc2)Oc2cc(-c3ccncc3)ccc2S1(=O)=O was 1.19

Now examine the next entry.
So for COC(=O)[C@@H]1[C@@H](CO)[C@@H]2Cn3c(ccc(C4=CCCC4)c3=O)[C@@H]2N1Cc1cncnc1 , the logged activity change (Venus) turned out to be 12.2

Hey, just so you know, these numbers are from PubChem BioAssay AID1053133.
